Method description: CC50 assay in the anti-HCV replicon assay (CellTiter-Glo)
Assay type: cell-based, human
Condition notes: human, Huh-7 hepatoma cells harbouring an HCV replicon; Huh-7 HCV replicon cells, 3 days incubation, CellTiter-Glo luminescence
Listed compounds paired with reported CC50 at 3 days

Structure smiles | CC50 at 3 days
Cc1cc(C)cc(-c2ccc3nc(N)nc(OCCCN(C)C)c3c2)c1 | > 20 µM
CC(C)Oc1nc(N)nc2ccc(-c3cnc4ccccc4c3)cc12 | 10 to 20 µM
CC(C)Oc1nc(N)nc2ccc(-c3ccc(F)cc3Cl)cc12 | 10 to 20 µM
CCCCNC(=O)c1ccc(-c2ccc3nc(N)nc(OC(C)C)c3c2)cc1 | < 10 µM
Nc1nc(OCCF)c2cc(-c3cccc(O)c3)ccc2n1 | > 20 µM
COCCOc1nc(N)nc2ccc(-c3ccsc3)cc12 | > 20 µM

====

Measured CC50 at 3 days of individual entries
Method description: CC50 assay in the anti-HCV replicon assay (CellTiter-Glo)
Type: cell-based, human
Condition notes: human, Huh-7 hepatoma cells harbouring an HCV replicon; Huh-7 HCV replicon cells, 3 days incubation, CellTiter-Glo luminescence

Structure smiles | CC50 at 3 days
CC(C)Oc1nc(N)nc2ccc(-c3ccco3)cc12 | > 20 µM
CCOc1nc(N)nc2ccc(-c3cccs3)cc12 | < 10 µM
CNC(=O)c1ccc(-c2ccc3nc(N)nc(OC(C)C)c3c2)cc1Cl | > 20 µM
CC(=O)Nc1ccc(-c2ccc3nc(N)nc(OC(C)C)c3c2)cc1 | > 20 µM
COCCOc1nc(N)nc2ccc(-c3ccc(F)c(F)c3)cc12 | 10 to 20 µM
CCOc1ccc(-c2ccc3nc(N)nc(OCC4CCC4)c3c2)cc1 | > 20 µM
CN(C)CCOCCOc1nc(N)nc2ccc(-c3ccc(OC(F)(F)F)cc3)cc12 | 10 to 20 µM

====

Method description: CC50 assay in the anti-HCV replicon assay (CellTiter-Glo)
Format: cell-based, human
Condition notes: human, Huh-7 hepatoma cells harbouring an HCV replicon; Huh-7 HCV replicon cells, 3 days incubation, CellTiter-Glo luminescence

Structure smiles | CC50 at 3 days
CC(=O)Nc1ccc(-c2ccc3nc(N)nc(OCC4CC4)c3c2)cc1 | > 20 µM
Nc1nc(OCCF)c2cc(-c3ccc(C(=O)N4CCSCC4)cc3)ccc2n1 | > 20 µM
CNC(=O)c1ccc(-c2ccc3nc(N)nc(OCCF)c3c2)cc1 | > 20 µM
CC(C)CNC(=O)c1ccc(-c2ccc3nc(N)nc(OCCF)c3c2)cc1 | 10 to 20 µM
CC(C)Oc1nc(N)nc2ccc(-c3ccc(F)c(F)c3F)cc12 | > 20 µM
Nc1nc(OCC2CCC2)c2cc(-c3cccc(C(F)(F)F)c3)ccc2n1 | 10 to 20 µM
Nc1nc(OCCO)c2cc(-c3cccc(O)c3)ccc2n1 | 10 to 20 µM
Nc1nc(O[C@@H]2CCOC2)c2cc(-c3ccc(C(=O)NCCN4CCCC4)cc3)ccc2n1 | < 10 µM
CCOc1nc(N)nc2ccc(-c3ccc(-c4nnc(C)o4)cc3)cc12 | > 20 µM
Nc1nc(OCCO)c2cc(-c3ccc(C(=O)NC4CCCC4)cc3)ccc2n1 | > 20 µM
Nc1nc(OCc2ccccc2)c2cc(-c3ccn[nH]3)ccc2n1 | 10 to 20 µM
CC(C)(CN1CCCC1)NC(=O)c1ccc(-c2ccc3nc(N)nc(O[C@@H]4CCOC4)c3c2)cc1 | < 10 µM
